# target-under-test: Human MIF (MIF tautomerase) (Homo sapiens)
# Construct: purchased ProSpec
# Sequence (P14174 2-115 limits assumed): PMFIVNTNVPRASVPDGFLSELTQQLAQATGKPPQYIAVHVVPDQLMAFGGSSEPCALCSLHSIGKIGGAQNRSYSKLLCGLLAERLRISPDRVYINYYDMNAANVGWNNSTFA
# assay-summary: MIF Tautomerase Inhibitory Assay with L-Dopachrome Methyl Ester
# Format: biochemical
# reported-conditions: relative potency class, MIF tautomerase inhibition; L-dopachrome methyl ester substrate, pH 7.34, no pre-incubation; read-out: IC50
pIC50: −log10 of the molar value.
assay-readout: pIC50

[[record]]
compound = "CC(Oc1cccc(OCCN(C)C)c1)[C@H]1CC[C@H](CN2Cc3ccc(O)c(F)c3C2=O)CC1 (stereo partly shown)"
val = "> 6.00"

[[record]]
compound = "O=C1c2cc(O)ccc2CN1CCc1ccccc1"
val = "5.00 to 5.30"

[[record]]
compound = "O=C1OCc2ccc(OC[C@H]3CC[C@H](CN4Cc5ccc(O)cc5C4=O)CC3)cc21"
val = "> 6.00"

[[record]]
compound = "CN(C)C(=O)[C@H]1CC[C@H](CN2Cc3ccc(O)cc3C2=O)CC1"
val = "5.30 to 6.00"

[[record]]
compound = "C[C@H](O)[C@H]1CC[C@H](CN2Cc3ccc(O)c(F)c3C2=O)CC1"
val = "> 6.00"

[[record]]
compound = "CC(O)[C@H]1CC[C@H](CN2Cc3ccc(O)c(F)c3C2=O)CC1 (stereo partly shown)"
val = "> 6.00"

[[record]]
compound = "O=C1c2cc(O)ccc2CN1C[C@H]1CC[C@H](COc2ccccc2F)CC1"
val = "> 6.00"

[[record]]
compound = "O=C1c2cc(O)ccc2CN1C[C@H]1CC[C@H](CN2CCOCC2)CC1"
val = "5.30 to 6.00"

[[record]]
compound = "CC(N)[C@H]1CC[C@H](CN2Cc3ccc(O)cc3C2=O)CC1 (stereo partly shown)"
val = "5.30 to 6.00"

[[record]]
compound = "CC(=O)OC(CCC1CCCCC1)[C@H]1CC[C@H](CN2Cc3ccc(O)cc3C2=O)CC1 (stereo partly shown)"
val = "> 6.00"

